In this section we review reported koff values for a set of binders.
- SYSTEM UNDER TEST: T1, cynomolgus (Macaca fascicularis) ST2L extracellular domain with C-terminal His6 tag (Macaca fascicularis (cynomolgus), UniProt Q01638 19-321 (human entry))
- T1 construct: also called cyno ST2L-ECD; cynoST2L-ECD
- T1 chain: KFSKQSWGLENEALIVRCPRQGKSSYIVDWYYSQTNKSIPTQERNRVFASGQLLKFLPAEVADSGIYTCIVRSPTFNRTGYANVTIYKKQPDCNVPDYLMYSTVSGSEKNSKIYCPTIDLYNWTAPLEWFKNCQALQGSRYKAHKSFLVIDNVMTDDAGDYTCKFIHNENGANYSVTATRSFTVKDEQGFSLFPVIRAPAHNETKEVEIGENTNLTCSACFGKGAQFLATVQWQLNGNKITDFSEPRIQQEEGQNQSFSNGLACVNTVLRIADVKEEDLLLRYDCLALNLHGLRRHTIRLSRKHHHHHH
- TEST DETAILS: ProteOn SPR, mAb captured, ST2L-ECD in solution
QUANTITY: koff (s⁻¹)

binder="STLM202 (antibody, V domains shown, C2494 HFA mAb: VH STLH194 + VL STLL275 (L5)) VH: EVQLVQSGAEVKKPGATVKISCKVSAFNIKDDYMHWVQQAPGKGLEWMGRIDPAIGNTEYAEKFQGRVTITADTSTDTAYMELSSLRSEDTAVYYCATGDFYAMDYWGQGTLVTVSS VL: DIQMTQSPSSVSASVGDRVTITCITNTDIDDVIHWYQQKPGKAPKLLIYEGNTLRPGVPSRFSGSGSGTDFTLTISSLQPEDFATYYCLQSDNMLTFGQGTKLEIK" measured_number=0.0104
binder="STLM187 (antibody, V domains shown, C2494 HFA mAb: VH STLH195 (IGHV1-24*01) + VL STLL280 (O12b)) VH: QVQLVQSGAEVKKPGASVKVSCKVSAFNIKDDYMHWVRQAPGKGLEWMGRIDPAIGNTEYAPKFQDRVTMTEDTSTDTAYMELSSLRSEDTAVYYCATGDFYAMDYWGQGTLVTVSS VL: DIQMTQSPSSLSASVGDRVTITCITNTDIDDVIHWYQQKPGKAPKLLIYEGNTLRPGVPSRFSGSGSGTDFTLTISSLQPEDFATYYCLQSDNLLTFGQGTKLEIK" measured_number=0.11
binder="STLM190 (antibody, V domains shown, C2494 HFA mAb: VH STLH195 + VL STLL277 (L8)) VH: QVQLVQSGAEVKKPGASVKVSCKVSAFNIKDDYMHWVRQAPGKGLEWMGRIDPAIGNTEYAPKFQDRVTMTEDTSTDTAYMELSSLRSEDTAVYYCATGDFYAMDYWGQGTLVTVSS VL: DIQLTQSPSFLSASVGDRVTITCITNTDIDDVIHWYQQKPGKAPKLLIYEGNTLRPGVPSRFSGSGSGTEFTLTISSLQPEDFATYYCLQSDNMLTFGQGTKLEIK" measured_number=0.102
